Where these numbers come from: ChEMBL document CHEMBL4400520

Test system: Enterobacter cloacae
Assay: Antibacterial activity against Enterobacter cloacae
Format: functional
# note: boundary value 0.5 µg/mL maps to no; MIC90 below it maps to yes

Enquiry: I'd appreciate it if you could check whether `CCOC(=O)c1c(-c2ccc(OC)cc2)oc2ccc(OCCCCCN3C(=O)/C(=N\OC)c4cc(F)ccc43)cc12` has MIC90 smaller than 0.5 µg/mL.
Return: no

Enquiry: I'd appreciate it if you could check whether `CCO/N=C1\C(=O)N(CCCCCOc2ccc3oc(-c4ccc(OC)cc4)c(C(=O)OCC)c3c2)c2ccc(F)cc21` has MIC90 smaller than 0.5 µg/mL.
Return: yes

Enquiry: I'd appreciate it if you could check whether `CCO/N=C1\C(=O)N(CCCOc2ccc3oc(-c4ccc(OC)cc4)c(C(=O)OCC)c3c2)c2ccc(OC)cc21` has MIC90 smaller than 0.5 µg/mL.
Return: no

Enquiry: I'd appreciate it if you could check whether `CCOC(=O)c1c(-c2ccccc2)oc2ccc(OCCCN3C(=O)/C(=N\OC)c4ccccc43)cc12` has MIC90 smaller than 0.5 µg/mL.
Return: no

Enquiry: I'd appreciate it if you could check whether `CCO/N=C1\C(=O)N(CCCCCOc2ccc3oc(-c4ccc(OC)cc4)c(C(=O)OCC)c3c2)c2ccc(OC)cc21` has MIC90 smaller than 0.5 µg/mL.
Return: yes

====

Provide the reported selectivity ratio of each item.
Assay: Selectivity index, ratio of CC50 for African green monkey Vero cells to MIC for Mycobacterium tuberculosis H37Rv
Assay type: toxicity
Details: read-out: Selectivity Index

The recorded selectivity ratio for entry `CCO/N=C1\C(=O)N(CCCCCCOc2ccc3oc(-c4ccc(OC)cc4)c(C(=O)OCC)c3c2)c2ccccc21` equals > 1000

The recorded selectivity ratio for entry `CCO/N=C1\C(=O)N(CCCCOc2ccc3oc(-c4ccc(OC)cc4)c(C(=O)OCC)c3c2)c2ccccc21` equals > 4000

The recorded selectivity ratio for entry `CCOC(=O)c1c(-c2ccc(OC)cc2)oc2ccc(OCCCCCN3C(=O)/C(=N\OC)c4cc(F)ccc43)cc12` equals > 2000

The recorded selectivity ratio for entry `CCOC(=O)c1c(-c2ccc(F)cc2)oc2ccc(OCCCCCCN3C(=O)C(=O)c4cc(F)ccc43)cc12` equals > 32000

The recorded selectivity ratio for entry `CCO/N=C1\C(=O)N(CCCOc2ccc3oc(-c4ccc(OC)cc4)c(C(=O)OCC)c3c2)c2ccccc21` equals > 8000

The recorded selectivity ratio for entry `CCOC(=O)c1c(-c2ccc(OC)cc2)oc2ccc(OCCCCCCN3C(=O)/C(=N\OC)c4cc(F)ccc43)cc12` equals > 1000

The recorded selectivity ratio for entry `CCOC(=O)c1c(-c2ccc(OC)cc2)oc2ccc(OCCCCCCN3C(=O)/C(=N\NC(N)=S)c4cc(F)ccc43)cc12` equals > 500

The recorded selectivity ratio for entry `CCO/N=C1\C(=O)N(CCCOc2ccc3oc(-c4ccc(OC)cc4)c(C(=O)OCC)c3c2)c2ccc(OC)cc21` equals > 4000

The recorded selectivity ratio for entry `CCOC(=O)c1c(-c2ccccc2)oc2ccc(OCCCN3C(=O)/C(=N\OC)c4ccccc43)cc12` equals > 2000

The recorded selectivity ratio for entry `CCOC(=O)c1c(-c2ccc(OC)cc2)oc2ccc(OCCCN3C(=O)/C(=N\OC)c4cc(OC)ccc43)cc12` equals > 8000

====

Test system: Klebsiella pneumoniae
Experiment: Antibacterial activity against Klebsiella pneumoniae
Format: functional
measured.quantity: log10(MIC90) (log10 of the value in µg/mL)
For clarity, the numbers are log10 values of MIC90 expressed in µg/mL.

The recorded log10(MIC90) for entry `CCOC(=O)c1c(-c2ccc(OC)cc2)oc2ccc(OCCCCCCN3C(=O)/C(=N\OC)c4cc(F)ccc43)cc12` equals 0.30

The recorded log10(MIC90) for entry `CCOC(=O)c1c(-c2ccc(OC)cc2)oc2ccc(OCCCCCN3C(=O)/C(=N\OC)c4ccccc43)cc12` equals 0.30

The recorded log10(MIC90) for entry `CCOC(=O)c1c(-c2ccc(OC)cc2)oc2ccc(OCCCCCN3C(=O)C(=O)c4cc(F)ccc43)cc12` equals 0.30

The recorded log10(MIC90) for entry `CCOC(=O)c1c(-c2ccc(OC)cc2)oc2ccc(OCCCCCCN3C(=O)C(=O)c4cc(F)ccc43)cc12` equals 0.00

The recorded log10(MIC90) for entry `CCOC(=O)c1c(-c2ccc(OC)cc2)oc2ccc(OCCCCN3C(=O)/C(=N\OC)c4ccccc43)cc12` equals -0.60

The recorded log10(MIC90) for entry `CCOC(=O)c1c(-c2ccc(OC)cc2)oc2ccc(OCCCCCCN3C(=O)/C(=N\NC(N)=S)c4cc(F)ccc43)cc12` equals 0.00

The recorded log10(MIC90) for entry `CCO/N=C1\C(=O)N(CCCCCOc2ccc3oc(-c4ccc(OC)cc4)c(C(=O)OCC)c3c2)c2ccc(OC)cc21` equals 0.30

The recorded log10(MIC90) for entry `CCOC(=O)c1c(-c2ccccc2)oc2ccc(OCCCN3C(=O)/C(=N\OC)c4cc(OC)ccc43)cc12` equals -0.30

The recorded log10(MIC90) for entry `CCO/N=C1\C(=O)N(CCCCCOc2ccc3oc(-c4ccc(OC)cc4)c(C(=O)OCC)c3c2)c2ccc(F)cc21` equals 0.60

The recorded log10(MIC90) for entry `CCOC(=O)c1c(-c2ccc(F)cc2)oc2ccc(OCCCCCCN3C(=O)/C(=N\OC)c4cc(F)ccc43)cc12` equals 0.30

The recorded log10(MIC90) for entry `CCO/N=C1\C(=O)N(CCCCOc2ccc3oc(-c4ccc(OC)cc4)c(C(=O)OCC)c3c2)c2ccccc21` equals 0.30

The recorded log10(MIC90) for entry `CCOC(=O)c1c(-c2ccc(F)cc2)oc2ccc(OCCCCCCN3C(=O)C(=O)c4cc(F)ccc43)cc12` equals 0.00

The recorded log10(MIC90) for entry `CCO/N=C1\C(=O)N(CCCCOc2ccc3oc(-c4ccc(OC)cc4)c(C(=O)OCC)c3c2)c2ccc(F)cc21` equals 0.30

The recorded log10(MIC90) for entry `CCOC(=O)c1c(-c2ccccc2)oc2ccc(OCCCN3C(=O)/C(=N\OC)c4ccccc43)cc12` equals -0.30

The recorded log10(MIC90) for entry `CCOC(=O)c1c(-c2ccc(OC)cc2)oc2ccc(OCCCCN3C(=O)/C(=N\OC)c4cc(F)ccc43)cc12` equals 0.30

The recorded log10(MIC90) for entry `CCO/N=C1\C(=O)N(CCCOc2ccc3oc(-c4ccc(OC)cc4)c(C(=O)OCC)c3c2)c2ccc(OC)cc21` equals 0.30

The recorded log10(MIC90) for entry `CCOC(=O)c1c(-c2ccc(OC)cc2)oc2ccc(OCCCCCN3C(=O)/C(=N\OC)c4cc(F)ccc43)cc12` equals -0.30

The recorded log10(MIC90) for entry `CCOC(=O)c1c(-c2ccc(OC)cc2)oc2ccc(OCCCCCCN3C(=O)/C(=N\NC(N)=S)c4ccccc43)cc12` equals 0.90

The recorded log10(MIC90) for entry `CCOC(=O)c1c(-c2ccc(OC)cc2)oc2ccc(OCCCCCN3C(=O)/C(=N\O)c4ccccc43)cc12` equals 0.00

The recorded log10(MIC90) for entry `O=C(O)c1cn(C2CC2)c2cc(N3CCNCC3)c(F)cc2c1=O` equals -0.30

The recorded log10(MIC90) for entry `CCOC(=O)c1c(-c2ccccc2)oc2ccc(OCCCCN3C(=O)/C(=N\OC)c4cc(F)ccc43)cc12` equals -0.60

The recorded log10(MIC90) for entry `CCO/N=C1\C(=O)N(CCCCCCOc2ccc3oc(-c4ccc(OC)cc4)c(C(=O)OCC)c3c2)c2ccccc21` equals 0.00

The recorded log10(MIC90) for entry `CCOC(=O)c1c(-c2ccc(OC)cc2)oc2ccc(OCCCN3C(=O)/C(=N\OC)c4cc(OC)ccc43)cc12` equals 0.00

====

Tested on: Acinetobacter calcoaceticus
Test: Antibacterial activity against Acinetobacter calcoaceticus
Format: functional
measured.quantity: MIC90

The recorded MIC90 for entry `CCO/N=C1\C(=O)N(CCCOc2ccc3oc(-c4ccc(OC)cc4)c(C(=O)OCC)c3c2)c2ccc(OC)cc21` equals 4 mg/L

The recorded MIC90 for entry `CCO/N=C1\C(=O)N(CCCCCOc2ccc3oc(-c4ccc(OC)cc4)c(C(=O)OCC)c3c2)c2ccc(OC)cc21` equals 2 mg/L

The recorded MIC90 for entry `CCOC(=O)c1c(-c2ccc(OC)cc2)oc2ccc(OCCCCCCN3C(=O)C(=O)c4ccccc43)cc12` equals 2 mg/L

====

Provide the reported selectivity ratio of each item.
Experiment: Selectivity index, ratio of CC50 for African green monkey Vero cells to MIC for Mycobacterium tuberculosis H37Rv
Type: toxicity
Conditions: read-out: Selectivity Index

The recorded selectivity ratio for entry `CCOC(=O)c1c(-c2ccc(OC)cc2)oc2ccc(OCCCCCCN3C(=O)C(=O)c4cc(F)ccc43)cc12` equals > 64000

The recorded selectivity ratio for entry `CCOC(=O)c1c(-c2ccc(OC)cc2)oc2ccc(OCCCCN3C(=O)/C(=N\OC)c4ccccc43)cc12` equals > 2000

The recorded selectivity ratio for entry `CCOC(=O)c1c(-c2ccc(OC)cc2)oc2ccc(OCCCN3C(=O)/C(=N\OC)c4ccccc43)cc12` equals > 1000
